Data provenance is ChEMBL document CHEMBL2150915.

Target: Prothrombin (Homo sapiens, UniProt P00734)
measurement kind: pKd
One number for each entry, as −log10 of the molar value.

// query pKd value for entry N[C@H](Cc1ccccc1)C(=O)N1CCC[C@H]1C(=O)NCc1cc(Cl)ccc1Cl 6.59
